Molecular target: human GABAA α1β3γ2 receptor (Homo sapiens (Human), UniProt P14867+P18507)
Test: Radioligand binding assay, competition for [3H]Flumazenil, γ2-containing GABAA subtypes
Ki values by entry
Dear colleague, please return just the value in µM, with no unit written.

Use the examples below as a reference point.
Cc1nnc2n1-c1sc3c(c1C(c1c(F)cccc1F)=N[C@H]2C)CC[C@H](F)CC3 (single isomer, unassigned)    11
Cc1nnc2n1-c1sc3c(c1C(c1c(F)cccc1F)=N[C@H]2C)COCCO3    1.36
Cc1nnc2n1-c1sc3c(c1C(c1c(F)cccc1F)=N[C@H]2C)CCCCC3O (mixture of isomers)    1.13

Then this compound:
Query Ki for C[C@@H]1N=C(c2c(F)cccc2F)c2c(sc3c2CCCCC3)-n2ccc(=O)nc21
7.69

* * *

Ki values by entry
Molecular target: human GABAA α1β3γ2 receptor (Homo sapiens (Human), UniProt P14867+P18507)
Experiment: Radioligand binding assay, competition for [3H]Flumazenil, γ2-containing GABAA subtypes
Dear colleague, please return just the value in µM, with no unit written.

Use the examples below as a reference point.
C[C@@H]1N=C(c2c(F)cccc2F)c2c(sc3c2CCCCC3)-n2c(C3CC3)nnc21 [Example 3]    1.36
Cc1nnc2n1-c1sc3c(c1C(c1c(F)cccc1F)=N[C@H]2C)OCCCC3 [Example 33]    3.72
Cc1nnc2n1-c1sc3c(c1C(c1c(F)cccc1F)=N[C@H]2C)COCCC3 [Example 52]    2.78
C[C@@H]1N=C(c2c(F)cccc2F)c2c(sc3c2CCCCC3)-n2c(-c3cccnn3)nnc21 [Example 4]    4.52
Cc1nnc2n1-c1sc3c(c1C(c1c(F)cccc1F)=N[C@H]2C)CCCC(O)C3 (mixture of isomers) [Example 13]    1.19
Cc1nnc2n1-c1sc3c(c1C(c1c(F)cccc1F)=N[C@H]2C)CCC(F)C(F)C3 (single isomer, unassigned) [Example 34]    10.8

State, for human GABAA α1β3γ2 receptor (Homo sapiens (Human), UniProt P14867+P18507), measured Ki of the compound listed here: Cc1nc2n(n1)-c1sc3c(c1C(c1c(F)cccc1F)=N[C@H]2C)CCCCC3 [Example 20]
1.28

State, for human GABAA α1β3γ2 receptor (Homo sapiens (Human), UniProt P14867+P18507), measured Ki of the compound listed here: Cc1nnc2n1-c1sc3c(c1C(c1c(F)cccc1F)=N[C@H]2C)CC[C@@H](F)CO3 [Example 56]
11.5

* * *

pKi values by entry
Target: human GABAA α2β2γ1 receptor (Homo sapiens (Human), UniProt P47869+Q8N1C3)
Assay: Radioligand binding assay, competition for [3H]RO7239181, γ1-containing GABAA subtypes
Settings: Ki h-GABAA α2β2γ1, membranes of HEK293F cells, [3H]RO7239181 20-30 nM, Table 2
# log scale: pKi equals minus log10 of the concentration in mol/L

Use the examples below as a reference point.
Cc1nnc2n1-c1sc3c(c1C(c1c(F)cccc1F)=N[C@H]2C)COCC[C@H]3F    7.45
[2H]C1([2H])OCc2c(sc3c2C(c2c(F)cccc2F)=N[C@@H](C)c2nc(C(=O)N4CC(OCC)C4)nn2-3)OC1([2H])[2H]    8.11
C[C@@H]1N=C(c2c(F)cccc2F)c2c(sc3c2COCCO3)-n2nc(C(=O)NC[C@](C)(O)C(F)(F)F)nc21    7.69
Cc1nnc2n1-c1sc3c(c1C(c1c(F)cccc1F)=N[C@H]2C)CCCC(O)C3 (mixture of isomers)    7.82
C[C@@H]1N=C(c2c(F)cccc2F)c2c(sc3c2COCCO3)-n2cc(C(=O)NCC3(O)CC3)nc21    7.64
Cc1nnc2n1-c1sc3c(c1C(c1c(F)cccc1F)=N[C@H]2C)OCCCC3    7.25

Then this molecule:
Query pKi for C[C@@H]1N=C(c2c(F)cccc2F)c2c(sc3c2COCCO3)-n2nc(C(=O)NCC(C)(C)O)nc21
7.87

Values from patent US20240294543A1
